- System Name: rat brain N-type calcium channel subunits (α1B+α2δ+β1b cDNA subunits) (Rattus norvegicus)
- Construct: expressed in transfected cells; host or cells: HEK 293
- Sequence (Q02294 whole entry): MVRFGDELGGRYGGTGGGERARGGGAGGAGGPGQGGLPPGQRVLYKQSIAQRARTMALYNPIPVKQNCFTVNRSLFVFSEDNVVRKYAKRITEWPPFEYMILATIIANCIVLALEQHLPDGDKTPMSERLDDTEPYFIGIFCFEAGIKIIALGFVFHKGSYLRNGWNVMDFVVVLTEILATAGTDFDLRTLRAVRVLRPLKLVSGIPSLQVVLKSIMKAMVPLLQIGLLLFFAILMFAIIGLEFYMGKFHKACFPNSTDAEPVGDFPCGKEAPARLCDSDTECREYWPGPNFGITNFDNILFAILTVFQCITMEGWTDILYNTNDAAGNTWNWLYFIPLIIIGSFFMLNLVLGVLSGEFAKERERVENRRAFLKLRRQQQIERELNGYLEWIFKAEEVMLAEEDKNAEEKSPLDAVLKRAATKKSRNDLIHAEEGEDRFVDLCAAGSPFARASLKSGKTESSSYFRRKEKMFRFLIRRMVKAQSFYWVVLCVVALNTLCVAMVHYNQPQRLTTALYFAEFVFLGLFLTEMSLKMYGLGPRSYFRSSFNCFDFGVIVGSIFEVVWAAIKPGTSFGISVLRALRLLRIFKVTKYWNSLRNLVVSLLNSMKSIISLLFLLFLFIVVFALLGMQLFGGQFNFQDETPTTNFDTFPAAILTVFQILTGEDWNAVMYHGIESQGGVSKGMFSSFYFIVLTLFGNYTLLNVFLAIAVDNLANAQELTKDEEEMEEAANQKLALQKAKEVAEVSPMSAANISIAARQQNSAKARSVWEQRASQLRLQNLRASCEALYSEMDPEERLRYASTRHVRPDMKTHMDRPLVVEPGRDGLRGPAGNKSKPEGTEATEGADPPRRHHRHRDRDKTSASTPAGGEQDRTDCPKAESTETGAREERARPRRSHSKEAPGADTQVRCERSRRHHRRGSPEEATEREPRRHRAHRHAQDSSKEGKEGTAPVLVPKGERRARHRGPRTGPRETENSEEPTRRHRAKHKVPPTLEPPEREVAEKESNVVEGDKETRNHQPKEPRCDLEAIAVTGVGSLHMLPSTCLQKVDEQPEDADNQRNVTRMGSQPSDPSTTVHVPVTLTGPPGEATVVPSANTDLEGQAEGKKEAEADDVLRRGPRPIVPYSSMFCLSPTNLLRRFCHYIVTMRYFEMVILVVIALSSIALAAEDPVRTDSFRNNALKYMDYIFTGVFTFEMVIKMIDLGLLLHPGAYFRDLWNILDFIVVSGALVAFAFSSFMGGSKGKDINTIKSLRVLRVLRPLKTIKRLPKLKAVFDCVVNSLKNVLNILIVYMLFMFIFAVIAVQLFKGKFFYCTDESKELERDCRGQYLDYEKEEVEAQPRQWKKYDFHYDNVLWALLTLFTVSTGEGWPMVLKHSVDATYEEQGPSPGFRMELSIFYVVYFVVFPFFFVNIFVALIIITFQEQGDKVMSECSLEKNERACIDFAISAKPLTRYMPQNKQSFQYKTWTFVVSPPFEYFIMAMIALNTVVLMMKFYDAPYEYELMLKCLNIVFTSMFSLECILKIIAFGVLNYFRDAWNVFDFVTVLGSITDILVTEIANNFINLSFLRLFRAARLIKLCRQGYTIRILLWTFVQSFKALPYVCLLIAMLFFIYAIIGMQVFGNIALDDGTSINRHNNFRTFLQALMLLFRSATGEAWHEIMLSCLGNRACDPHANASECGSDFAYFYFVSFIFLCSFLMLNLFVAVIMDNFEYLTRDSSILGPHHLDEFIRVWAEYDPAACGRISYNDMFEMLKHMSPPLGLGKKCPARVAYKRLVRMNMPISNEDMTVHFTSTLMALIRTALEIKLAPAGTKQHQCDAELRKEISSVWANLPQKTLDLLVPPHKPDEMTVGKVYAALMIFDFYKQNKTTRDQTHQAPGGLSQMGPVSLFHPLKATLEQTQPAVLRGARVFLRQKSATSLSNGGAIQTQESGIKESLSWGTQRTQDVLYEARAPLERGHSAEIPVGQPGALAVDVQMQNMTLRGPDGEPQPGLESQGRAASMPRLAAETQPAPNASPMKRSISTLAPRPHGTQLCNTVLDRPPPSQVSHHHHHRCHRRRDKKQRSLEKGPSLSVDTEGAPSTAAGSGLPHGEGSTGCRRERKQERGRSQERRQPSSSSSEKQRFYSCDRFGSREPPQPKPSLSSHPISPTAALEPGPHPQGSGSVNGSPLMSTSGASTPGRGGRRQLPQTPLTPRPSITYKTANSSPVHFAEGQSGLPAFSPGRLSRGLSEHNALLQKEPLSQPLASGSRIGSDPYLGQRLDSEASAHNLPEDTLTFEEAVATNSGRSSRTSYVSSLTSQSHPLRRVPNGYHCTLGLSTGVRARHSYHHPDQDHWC
- Sequence (P54290 25-944 partner limits assumed): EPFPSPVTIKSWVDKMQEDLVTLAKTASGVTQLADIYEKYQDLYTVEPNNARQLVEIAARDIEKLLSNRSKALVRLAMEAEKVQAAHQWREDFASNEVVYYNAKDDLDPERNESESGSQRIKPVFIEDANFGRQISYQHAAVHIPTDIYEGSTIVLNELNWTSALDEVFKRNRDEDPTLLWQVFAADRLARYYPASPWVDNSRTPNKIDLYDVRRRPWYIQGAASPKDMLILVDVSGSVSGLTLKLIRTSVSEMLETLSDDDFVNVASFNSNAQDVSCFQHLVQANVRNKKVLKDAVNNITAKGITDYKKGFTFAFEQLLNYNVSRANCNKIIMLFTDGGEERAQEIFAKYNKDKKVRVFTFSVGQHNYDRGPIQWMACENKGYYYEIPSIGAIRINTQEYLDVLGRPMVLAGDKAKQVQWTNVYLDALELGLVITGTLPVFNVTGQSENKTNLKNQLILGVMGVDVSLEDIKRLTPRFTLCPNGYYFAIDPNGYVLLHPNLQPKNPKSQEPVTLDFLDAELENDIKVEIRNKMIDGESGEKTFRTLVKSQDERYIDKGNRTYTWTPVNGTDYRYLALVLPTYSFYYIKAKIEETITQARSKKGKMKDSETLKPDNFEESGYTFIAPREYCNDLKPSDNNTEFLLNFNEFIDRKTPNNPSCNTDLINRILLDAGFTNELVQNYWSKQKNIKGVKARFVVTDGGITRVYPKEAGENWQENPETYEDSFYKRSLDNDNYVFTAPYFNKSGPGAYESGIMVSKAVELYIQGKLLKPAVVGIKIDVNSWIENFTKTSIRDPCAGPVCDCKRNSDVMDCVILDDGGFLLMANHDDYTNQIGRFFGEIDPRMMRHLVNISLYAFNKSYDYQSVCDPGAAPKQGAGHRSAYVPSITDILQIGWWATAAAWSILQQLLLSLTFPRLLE
- Sequence (P54290 945-1091 partner limits assumed): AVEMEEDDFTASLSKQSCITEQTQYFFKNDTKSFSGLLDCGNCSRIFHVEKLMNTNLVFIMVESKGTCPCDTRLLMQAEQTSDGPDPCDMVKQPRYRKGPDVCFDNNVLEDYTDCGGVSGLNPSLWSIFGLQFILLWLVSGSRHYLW
- Sequence (P54283 whole entry partner): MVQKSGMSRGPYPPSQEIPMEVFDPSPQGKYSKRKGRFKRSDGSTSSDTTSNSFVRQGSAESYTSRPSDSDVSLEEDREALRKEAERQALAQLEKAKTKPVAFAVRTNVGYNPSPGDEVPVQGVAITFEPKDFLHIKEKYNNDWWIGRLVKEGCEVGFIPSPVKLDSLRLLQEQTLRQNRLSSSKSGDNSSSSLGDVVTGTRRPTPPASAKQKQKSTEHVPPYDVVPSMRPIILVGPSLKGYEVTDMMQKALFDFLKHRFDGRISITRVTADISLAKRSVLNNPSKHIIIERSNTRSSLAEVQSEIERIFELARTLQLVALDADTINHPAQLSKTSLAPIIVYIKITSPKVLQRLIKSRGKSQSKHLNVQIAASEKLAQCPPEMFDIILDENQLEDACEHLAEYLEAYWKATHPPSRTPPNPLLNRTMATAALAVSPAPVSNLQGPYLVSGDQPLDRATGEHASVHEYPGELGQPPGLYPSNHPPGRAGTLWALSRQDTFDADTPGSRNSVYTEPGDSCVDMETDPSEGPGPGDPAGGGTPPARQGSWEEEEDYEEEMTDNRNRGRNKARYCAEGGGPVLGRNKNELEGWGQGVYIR
- Measurement Protocol: N-type calcium channel block, whole cell patch clamp in transfected HEK 293 cells
- Type: cell-based
- Condition Details: −80 mV, read-out: IC50 @ −80 mV
- Method: N-type calcium channel blocking activity was assayed in human embryonic kidney cells, HEK 293, stably transfected with the rat brain N-type calcium channel subunits (α1B+α2δ+β1b cDNA subunits). […] Whole cell patch clamp experiments were performed using an Axopatch 200B amplifier (Axon Instruments, Burlingame, Calif.) linked to a personal computer equipped with pCLAMP software. […] Data were analyzed using Clampfit (Axon Instruments) and SigmaPlot 4.0 (Jandel Scientific).
Measure Name: IC50 (µM)

{"Chemical String": "O=C(CN1CCN(C(c2ccc(F)cc2)c2ccc(F)cc2)CC1)Nc1nc2ccccc2s1", "IC50 [µM]": 2.53}
{"Chemical String": "O=C(CN1CCN(C(c2ccc(F)cc2)c2ccc(F)cc2)CC1)Nc1nccs1", "IC50 [µM]": 3.4}
{"Chemical String": "O=C(CN1CCN(C(c2ccccc2)c2ccccc2)CC1)Nc1nc2ccccc2s1", "IC50 [µM]": 1.21}

a = O=C(CN1CCN(C(c2ccc(F)cc2)c2ccc(F)cc2)CC1)Nc1ncc(Cl)s1
b = CS(=O)(=O)c1ccc2nc(NC(=O)CN3CCN(C(c4ccccc4)c4ccccc4)CC3)sc2c1
c = Cc1ccc(-c2csc(NC(=O)CN3CCN(C(c4ccccc4)c4ccccc4)CC3)n2)cc1
d = O=C(CN1CCN(C(c2ccccc2)c2ccccc2)CC1)Nc1nc2ccccc2[nH]1
stdin: Arrange the 4 compounds from largest to smallest IC50. The labels, placed in the requested order, form the answer.
stdout: c, b, a, d
